# binding, % of positive control peptide per entry
# TARGET_DESC: T1, MHC class I molecule B*0702 (biotin (bound to streptavidin-coated plate))
# T1 construct: iTopia monomer stripped of placeholder peptide and b2M, then reconstituted with test peptide and fresh b2M; also called B7; HLA-B7
# ASSAY_INFO: iTopia peptide binding assay

| BINDER | binding, % of positive control peptide |
| --- | --- |
| NIRDACRDH [5T4 9-mer peptide 194 (NIRDACRDH)] | 6 % of positive control |
| KGIKKWMHN [5T4 9-mer peptide 190 (KGIKKWMHN)] | 6 % of positive control |
| DPILPPSLQ [5T4 9-mer peptide 173 (DPILPPSLQ)] | 0 % of positive control |
| YRYEINADP [5T4 9-mer peptide 201 (YRYEINADP)] | 3 % of positive control |
